Numbers sourced from patent EP4711369A1.

# key: entry, value: pIC50
molecular target: CDK9/cyclin T1 (Homo sapiens); assay: Assay of kinase activity (ADP-Glo); settings: kinase inhibitory activity
Sequence (P50750 whole entry, species assumed): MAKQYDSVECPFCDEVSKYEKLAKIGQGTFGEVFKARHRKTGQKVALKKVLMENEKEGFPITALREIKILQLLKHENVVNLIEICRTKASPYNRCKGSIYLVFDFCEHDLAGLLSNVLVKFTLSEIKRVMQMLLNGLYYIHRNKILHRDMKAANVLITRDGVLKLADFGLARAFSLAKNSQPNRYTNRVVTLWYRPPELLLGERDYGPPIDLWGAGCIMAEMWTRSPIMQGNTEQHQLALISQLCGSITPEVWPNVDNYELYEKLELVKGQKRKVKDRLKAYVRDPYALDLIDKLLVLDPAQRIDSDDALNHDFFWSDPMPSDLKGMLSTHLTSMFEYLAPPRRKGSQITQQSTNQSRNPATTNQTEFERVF
Sequence (O60563 whole entry partner, species assumed): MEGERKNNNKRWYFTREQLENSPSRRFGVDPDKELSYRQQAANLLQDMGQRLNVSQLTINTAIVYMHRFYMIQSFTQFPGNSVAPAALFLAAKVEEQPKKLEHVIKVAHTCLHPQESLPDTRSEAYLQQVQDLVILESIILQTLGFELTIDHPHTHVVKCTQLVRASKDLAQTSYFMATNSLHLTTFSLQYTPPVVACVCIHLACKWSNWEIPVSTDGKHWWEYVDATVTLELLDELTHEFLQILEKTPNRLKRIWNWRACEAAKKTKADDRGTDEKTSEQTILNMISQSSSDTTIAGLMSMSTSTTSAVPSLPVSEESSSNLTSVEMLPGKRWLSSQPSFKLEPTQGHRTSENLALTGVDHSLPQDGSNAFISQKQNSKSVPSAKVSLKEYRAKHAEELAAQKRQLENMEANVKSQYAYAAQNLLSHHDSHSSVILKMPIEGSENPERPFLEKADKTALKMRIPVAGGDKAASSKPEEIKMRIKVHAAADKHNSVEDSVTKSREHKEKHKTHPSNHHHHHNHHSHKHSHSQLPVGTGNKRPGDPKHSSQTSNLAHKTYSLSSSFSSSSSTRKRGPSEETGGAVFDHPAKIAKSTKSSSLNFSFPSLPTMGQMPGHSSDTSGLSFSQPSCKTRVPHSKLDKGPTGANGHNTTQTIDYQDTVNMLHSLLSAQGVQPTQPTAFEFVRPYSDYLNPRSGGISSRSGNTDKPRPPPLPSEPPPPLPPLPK
pIC50: −log10 of the molar value.
measuredQuantity: pIC50

compoundString: C[C@@]1(O)CCC[C@H]1n1nnc2ccc3cnc(Nc4ccc(C(=O)N5CCS(=O)(=O)CC5)cc4)nc3c21
measuredQuantity: pIC50
valueObserved: 6.95
--
compoundString: CC(C)n1nnc2ccc3cnc(Nc4ccc(C(=O)N5CC6CCC(C5)N6)cc4)nc3c21
measuredQuantity: pIC50
valueObserved: 7.80
--
compoundString: CC(C)n1nnc2ccc3cnc(Nc4ccc(C(=O)N5C[C@@H](C)N[C@@H](C)C5)cc4)nc3c21
measuredQuantity: pIC50
valueObserved: 7.62
--
compoundString: CC(C)n1nnc2ccc3cnc(Nc4ccc(C(=O)N5CCCN(C)CC5)cc4)nc3c21
measuredQuantity: pIC50
valueObserved: 8.70
--
compoundString: C[C@H](CO)n1nnc2ccc3cnc(Nc4ccc(C(=O)N5CCOCC5)cc4)nc3c21
measuredQuantity: pIC50
valueObserved: 6.91
--
compoundString: C[C@@]1(O)CCC[C@H]1n1nnc2ccc3cnc(Nc4ccc(C(=O)N5CCCNCC5)cc4)nc3c21
measuredQuantity: pIC50
valueObserved: 8.70

====

biological target: CDK4/cyclin D1 (Homo sapiens); assay: Assay of kinase activity (ADP-Glo); details: kinase inhibitory activity
Sequence (P11802 whole entry, species assumed): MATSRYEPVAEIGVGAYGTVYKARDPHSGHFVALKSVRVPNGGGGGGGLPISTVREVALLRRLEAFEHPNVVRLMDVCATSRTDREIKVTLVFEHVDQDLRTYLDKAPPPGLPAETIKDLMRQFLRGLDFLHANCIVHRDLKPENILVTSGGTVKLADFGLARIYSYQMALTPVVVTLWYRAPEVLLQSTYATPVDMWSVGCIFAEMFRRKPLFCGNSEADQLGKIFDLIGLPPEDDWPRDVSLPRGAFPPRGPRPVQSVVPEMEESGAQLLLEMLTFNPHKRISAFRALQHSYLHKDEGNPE
Sequence (P24385 whole entry partner, species assumed): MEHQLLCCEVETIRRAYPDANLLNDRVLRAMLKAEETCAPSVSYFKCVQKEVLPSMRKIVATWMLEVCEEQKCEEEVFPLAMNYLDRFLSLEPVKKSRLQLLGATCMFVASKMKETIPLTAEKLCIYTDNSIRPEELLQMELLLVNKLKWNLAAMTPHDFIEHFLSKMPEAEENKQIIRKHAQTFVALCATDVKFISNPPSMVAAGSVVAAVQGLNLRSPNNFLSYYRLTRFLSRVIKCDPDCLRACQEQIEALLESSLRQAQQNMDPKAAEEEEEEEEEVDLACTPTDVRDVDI
pIC50: −log10 of the molar value.
# key: entry, value: pIC50

compound: CC(C)n1nnc2ccc3cnc(Nc4ccc(C(=O)N5CC6CCC(C5)N6)cc4)nc3c21 [Example I-25]
pIC50: 9.00
//
compound: CN[C@H]1CCN(C(=O)c2ccc(Nc3ncc4ccc5nnn(C(C)C)c5c4n3)cc2)C1 [Example I-6]
pIC50: 9.30
//
compound: CC(C)n1nnc2ccc3cnc(Nc4ccc(C(=O)N5C[C@@H](C)N[C@@H](C)C5)cc4)nc3c21 [Example I-23]
pIC50: 8.52
//
compound: CC(C)N[C@H]1CCN(C(=O)c2ccc(Nc3ncc4ccc5nnn([C@H](C)C(C)(C)O)c5c4n3)cc2)C1 [Example I-55]
pIC50: 8.70
//
compound: C[C@@]1(O)CCC[C@H]1n1nnc2ccc3cnc(Nc4ccc(C(=O)N5CCCNCC5)cc4)nc3c21 [Example I-69]
pIC50: 9.30
//
compound: C[C@@H](n1nnc2ccc3cnc(Nc4ccc(C(=O)N5CCOCC5)cc4)nc3c21)C(C)(C)O [Example I-58]
pIC50: 8.70
//
compound: C[C@@H](n1nnc2ccc3cnc(Nc4ccc(C(=O)N5CC[C@H](N)C5)cc4)nc3c21)C(C)(C)O [Example I-54]
pIC50: 8.70
//
compound: CN(C)[C@H]1CCN(C(=O)c2ccc(Nc3ncc4ccc5nnn([C@@H]6CCC[C@@]6(C)O)c5c4n3)cc2)C1 [Example I-64]
pIC50: 9.22
//
compound: C[C@@]1(O)CCC[C@H]1n1nnc2ccc3cnc(Nc4ccc(S(=O)(=O)NCCO)cc4)nc3c21 [Example I-71]
pIC50: 9.00
//
compound: CC(C)n1nnc2ccc3cnc(Nc4ccc(C(=O)N5CCNC(C)(C)C5)cc4)nc3c21 [Example I-22]
pIC50: 8.40
//
compound: CC(C)n1nnc2ccc3cnc(Nc4ccc(C(=O)N5CC[C@H](N)C5)cc4)nc3c21 [Example I-4]
pIC50: 9.30
//
compound: CN[C@@H]1CCN(C(=O)c2ccc(Nc3ncc4ccc5nnn(C(C)C)c5c4n3)cc2)C1 [Example I-7]
pIC50: 9.10
//
compound: CC(C)n1nnc2ccc3cnc(Nc4ccc(C(=O)N5CCN[C@H](C)C5)cc4)nc3c21 [Example I-21]
pIC50: 9.00
//
compound: CC(C)n1nnc2ccc3cnc(Nc4ccc(C(=O)N5CC6CC(C5)N6)cc4)nc3c21 [Example I-24]
pIC50: 9.00
